# target.entity: Angiotensin II receptor (Rattus norvegicus, UniProt P29089+P25095+P35351)
# Sequence (P29089 whole entry): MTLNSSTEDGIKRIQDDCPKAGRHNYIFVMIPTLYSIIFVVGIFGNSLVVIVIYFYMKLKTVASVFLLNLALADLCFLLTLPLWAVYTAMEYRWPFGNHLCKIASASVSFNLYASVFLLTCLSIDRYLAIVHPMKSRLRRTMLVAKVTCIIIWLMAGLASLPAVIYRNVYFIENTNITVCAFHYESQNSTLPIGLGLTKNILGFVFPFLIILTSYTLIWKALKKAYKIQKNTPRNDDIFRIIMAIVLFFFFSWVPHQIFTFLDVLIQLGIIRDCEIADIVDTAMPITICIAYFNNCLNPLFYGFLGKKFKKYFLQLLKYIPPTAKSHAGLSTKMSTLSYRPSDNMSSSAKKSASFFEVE
# Sequence (P25095 whole entry): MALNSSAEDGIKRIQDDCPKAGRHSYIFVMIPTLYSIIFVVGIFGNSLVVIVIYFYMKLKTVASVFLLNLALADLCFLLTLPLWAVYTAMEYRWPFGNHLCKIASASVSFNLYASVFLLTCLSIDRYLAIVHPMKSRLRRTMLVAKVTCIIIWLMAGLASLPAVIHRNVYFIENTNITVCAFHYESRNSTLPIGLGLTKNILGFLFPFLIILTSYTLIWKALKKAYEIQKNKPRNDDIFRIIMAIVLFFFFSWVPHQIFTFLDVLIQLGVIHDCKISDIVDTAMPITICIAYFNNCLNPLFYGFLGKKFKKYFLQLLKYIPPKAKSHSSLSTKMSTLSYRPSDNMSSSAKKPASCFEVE
# Sequence (P35351 whole entry): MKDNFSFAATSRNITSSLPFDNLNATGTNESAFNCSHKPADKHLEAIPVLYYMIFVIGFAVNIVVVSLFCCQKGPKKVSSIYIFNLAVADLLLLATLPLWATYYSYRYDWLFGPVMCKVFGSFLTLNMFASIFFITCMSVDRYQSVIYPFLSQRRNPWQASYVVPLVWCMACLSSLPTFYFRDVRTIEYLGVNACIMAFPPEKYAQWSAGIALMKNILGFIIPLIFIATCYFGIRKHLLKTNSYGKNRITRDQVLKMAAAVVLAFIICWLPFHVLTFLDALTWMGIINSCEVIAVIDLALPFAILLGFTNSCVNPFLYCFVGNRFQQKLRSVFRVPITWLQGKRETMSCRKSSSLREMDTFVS
# experiment.description: Inhibitory concentration that gave 50 percent displacement of specific binding of [3H]AII (2 nM) to Angiotensin II receptor
# Assay type: protein assay
Decide using IC50 alone. Strictly below 6 µM: criterion met. Equal to or above 6 µM: criterion not met.

CCCCc1nc(Cl)c(Cc2nnn[nH]2)n1Cc1cccc(-c2nnn[nH]2)c1	criterion met
CCCCc1nc(Cl)c(CC(=O)OC)n1Cc1ccc(NC(=O)c2cc(C)ccc2C(=O)O)cc1	criterion met
CCCCc1nc(Cl)c(CC(=O)OC)n1Cc1ccc(NC(=O)c2ccccc2-c2ccccc2C(=O)O)cc1	criterion met
CCCCc1nc(Cl)c(COC(C)=O)n1Cc1ccc(C(=O)O)cc1	criterion met
CCCCc1nc(Cl)c(CC(=O)O)n1Cc1ccccc1[N+](=O)[O-]	criterion not met
CCCCc1nc(Cl)c(CC(=O)O)n1Cc1cccc(C(=O)O)c1	criterion not met
CCCCc1nc(Cl)c(CC(=O)OC)n1Cc1ccc(NC(=O)/C=C\C(=O)O)cc1	criterion not met
CCCCc1nc(Cl)c(COC)n1Cc1ccc(C(=O)N2CCC[C@@H]2C(=O)O)cc1	criterion not met

Given CCCCc1nc(Cl)c(CC(=O)OC)n1Cc1ccc(NC(=O)c2cc3ccccc3cc2C(=O)O)cc1 , is recorded IC50 strictly lower than 6 µM?
criterion met

Input CCCCc1nc(Cl)c(COC)n1Cc1ccc(C(=O)N2CCC[C@H]2C(=O)O)cc1 ; condition: IC50 strictly below 6 µM. Does it hold?
criterion not met

* * *

IC50 values, listed per item
# target.entity: Angiotensin II receptor (Rattus norvegicus, UniProt P29089+P25095+P35351)
# Sequence (P29089 whole entry): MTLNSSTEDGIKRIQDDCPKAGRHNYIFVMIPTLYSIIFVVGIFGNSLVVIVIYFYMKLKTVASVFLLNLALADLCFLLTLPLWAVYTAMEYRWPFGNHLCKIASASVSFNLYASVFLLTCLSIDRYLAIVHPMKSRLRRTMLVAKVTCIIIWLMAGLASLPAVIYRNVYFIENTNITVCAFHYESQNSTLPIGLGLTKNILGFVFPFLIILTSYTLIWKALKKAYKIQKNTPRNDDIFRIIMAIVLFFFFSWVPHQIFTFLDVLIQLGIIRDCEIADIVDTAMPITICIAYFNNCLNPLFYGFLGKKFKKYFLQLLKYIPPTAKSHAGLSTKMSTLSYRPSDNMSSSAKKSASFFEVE
# Sequence (P25095 whole entry): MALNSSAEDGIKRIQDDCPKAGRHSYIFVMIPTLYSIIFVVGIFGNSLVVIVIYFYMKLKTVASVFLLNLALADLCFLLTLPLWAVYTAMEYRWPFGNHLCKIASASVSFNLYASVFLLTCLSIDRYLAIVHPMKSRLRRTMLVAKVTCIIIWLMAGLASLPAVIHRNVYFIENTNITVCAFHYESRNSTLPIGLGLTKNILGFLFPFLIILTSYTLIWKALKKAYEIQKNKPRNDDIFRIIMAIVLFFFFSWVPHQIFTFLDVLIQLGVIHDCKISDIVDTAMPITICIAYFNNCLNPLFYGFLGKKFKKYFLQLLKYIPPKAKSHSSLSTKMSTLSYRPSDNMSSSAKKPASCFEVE
# Sequence (P35351 whole entry): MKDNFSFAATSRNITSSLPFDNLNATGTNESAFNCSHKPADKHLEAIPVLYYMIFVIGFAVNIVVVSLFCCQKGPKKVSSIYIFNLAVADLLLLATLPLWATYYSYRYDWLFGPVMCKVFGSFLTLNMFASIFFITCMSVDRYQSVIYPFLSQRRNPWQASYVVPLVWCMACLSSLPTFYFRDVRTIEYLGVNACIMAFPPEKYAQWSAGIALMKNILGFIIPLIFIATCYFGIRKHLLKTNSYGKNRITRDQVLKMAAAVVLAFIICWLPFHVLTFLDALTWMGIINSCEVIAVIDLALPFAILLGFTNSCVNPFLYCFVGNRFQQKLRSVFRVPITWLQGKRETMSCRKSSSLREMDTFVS
# experiment.description: Inhibitory concentration that gave 50 percent displacement of specific binding of [3H]AII (2 nM) to Angiotensin II receptor
# Format: protein assay
Numbers only; they are read as µM.

CCCCc1nc(Cl)c(CO)n1Cc1ccc(OC)cc1	100
CCCCc1nc(Cl)c(CC(=O)OC)n1Cc1ccc(NC(=O)c2cccc(C)c2NS(=O)(=O)C(F)(F)F)cc1	0.19
CCCCc1nc(Cl)c(CC(=O)OC)n1Cc1ccc(NC(=O)c2cc(Br)ccc2NS(=O)(=O)C(F)(F)F)cc1	40

Given the compound CCCCc1nc(Cl)c(CC(=O)OC)n1Cc1ccc(NC(=O)C2CCCCC2NS(=O)(=O)C(F)(F)F)cc1 (stereo in doubt; 51) and test system Angiotensin II receptor (Rattus norvegicus, UniProt P29089+P25095+P35351), the measured IC50 is 4.5

Summary line: CCCCc1nc(Cl)c(CC(=O)OC)n1Cc1ccc(N)cc1 , Angiotensin II receptor (Rattus norvegicus, UniProt P29089+P25095+P35351), reported IC50 = 100

Tested system Angiotensin II receptor (Rattus norvegicus, UniProt P29089+P25095+P35351); IC50 recorded for CCCCc1nc(Cl)c(CC(=O)O)n1Cc1ccc(CC(=O)O)cc1 was 13

Measured IC50 (Angiotensin II receptor (Rattus norvegicus, UniProt P29089+P25095+P35351)), entry CCCCc1nc(Cl)c(CC(=O)OC)n1Cc1ccc(N2C(=O)c3ccccc3C2=O)cc1 : 3.1

The compound O=C(O)c1ccccc1C(=O)Nc1ccc(Cn2c(CCCc3ccccc3)nc(Cl)c2CO)cc1 , when measured on Angiotensin II receptor (Rattus norvegicus, UniProt P29089+P25095+P35351), yielded IC50 of 80

The measured IC50 that CCCCc1nc(CC(=O)O)c(Cl)n1Cc1ccc(C(=O)O)cc1 showed for Angiotensin II receptor (Rattus norvegicus, UniProt P29089+P25095+P35351) is 19

Let me check: C1CCC(NC2CCCCC2)CC1.CCCCc1nc(Cl)c(CC(=O)OC)n1Cc1ccc(NC(=O)c2c(Cl)ccc(Cl)c2C(=O)O)cc1 , system Angiotensin II receptor (Rattus norvegicus, UniProt P29089+P25095+P35351), measured IC50 is 0.018

* * *

Listed compounds paired with reported pKa
# experiment.description: Dissociation constant (pKa)
# Assay type: physicochemical
Respond with the number and no other words.

Known pKa results, listed for orientation:
CCCCc1nc(Cl)c(CC(=O)OC)n1Cc1ccc(NC(=O)c2cccc(C)c2NS(=O)(=O)C(F)(F)F)cc1	4.5
CCCCc1nc(Cl)c(CC(=O)OC)n1Cc1ccc(NC(=O)C(F)(F)F)cc1	9.5
CCCCc1nc(Cl)c(CC(=O)OC)n1Cc1ccc(NC(=O)c2ccccc2NS(C)(=O)=O)cc1	8.9

// pKa value for CCCCc1nc(Cl)c(CC(=O)OC)n1Cc1ccc(NC(=O)c2ccccc2NS(=O)(=O)C(F)(F)F)cc1 : 4.5

Lookup result for CCCCc1nc(Cl)c(CC(=O)OC)n1Cc1ccc(NC(=O)c2cc(Br)ccc2NS(=O)(=O)C(F)(F)F)cc1 ; measured pKa: 4.5

Entry CCCCc1nc(Cl)c(CC(=O)OC)n1Cc1ccc(NS(=O)(=O)C(F)(F)F)cc1 ; pKa = 4.5

Data origin: ChEMBL document CHEMBL1124756
